assaySystem: APOL1 (Homo sapiens, UniProt O14791)
Sequence (O14791 1-398 S342G/I384M): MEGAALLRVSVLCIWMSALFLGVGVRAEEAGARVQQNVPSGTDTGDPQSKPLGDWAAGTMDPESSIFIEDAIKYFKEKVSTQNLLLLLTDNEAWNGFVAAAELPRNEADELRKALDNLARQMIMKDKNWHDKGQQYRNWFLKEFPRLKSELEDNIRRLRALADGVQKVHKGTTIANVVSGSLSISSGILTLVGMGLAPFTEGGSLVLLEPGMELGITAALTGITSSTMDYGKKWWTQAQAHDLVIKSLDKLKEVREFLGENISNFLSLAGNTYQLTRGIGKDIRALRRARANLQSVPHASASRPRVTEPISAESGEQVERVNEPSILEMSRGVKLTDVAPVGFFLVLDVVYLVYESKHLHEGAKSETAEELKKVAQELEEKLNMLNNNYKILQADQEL
method: MultiTox-Fluor Multiplex Cytotoxicity Assay in tet-inducible APOL1 T-REx-HEK293 cells (cell rescue, ratio of dead to live cells)
condition: tet-inducible transgenic APOL1 T-REx-HEK293 cell lines, 50 ng/mL tet, 24 hours; read-out: IP50 (i.e., IC50 for cell proliferation)
Consider the following compounds; for each one, report its IC50.

Lab note: each compound below needs its IC50 filled in.
1. CC(O)c1c(C(F)(F)F)sc2c1CCO[C@@]21CCN(Cc2cnn(CCS(C)(=O)=O)c2)[C@@H](C)C1 (stereo partly shown) [Compound 878]
2. C[C@H]1C[C@@]2(CCN1Cc1cccc(OCC(N)=O)c1)OC[C@H](O)c1cc(Cl)sc12 [Compound 771]
3. C[C@H]1C[C@@]2(CCN1Cc1cnn(CCS(C)(=O)=O)c1)OCC(O)c1cc(C(F)(F)F)sc12 (single isomer, unassigned) [Compound 881]

1. < 100 nM
2. 100 to 500 nM
3. < 100 nM

Note to self: IC50 recorded for CCc1cc2c(s1)CCO[C@@]21CCN(Cc2cn(CCSCCO)nn2)[C@@H](C)C1 [Compound 23] was < 100 nM

* * *

assaySystem: APOL1 (Homo sapiens)
method: MultiTox-Fluor Multiplex Cytotoxicity Assay in tet-inducible APOL1 T-REx-HEK293 cells (cell rescue, ratio of dead to live cells)
Type: cell-based
condition: tet-inducible transgenic APOL1 T-REx-HEK293 cell lines, 50 ng/mL tet, 24 hours; read-out: IP50 (i.e., IC50 for cell proliferation)
parameter: IC50

Below: 3 molecules and their reported IC50.
molecule	assaySystem	parameter	measurement
C[C@H]1C[C@@]2(CCN1Cc1cnn(CC(O)c3ccccn3)c1)OCCc1c2sc(C(F)(F)F)c1CO (stereo partly shown) [Compound 939]	APOL1 (Homo sapiens)	IC50	< 100 nM
CCn1cc(CN2CC[C@]3(C[C@@H]2C)OCCc2c3sc(Cl)c2CO)cn1 [Compound 760]	APOL1 (Homo sapiens)	IC50	100 to 500 nM
CCc1cc2c(s1)CCO[C@@]21CCN(Cc2cnc(N[C@H]3COC[C@@H]3O)nc2)[C@@H](C)C1 [Compound 203]	APOL1 (Homo sapiens)	IC50	< 100 nM

Note: attention shifts to another entry.
Sample CCc1cc2c(s1)CCO[C@@]21CCN(C[C@@H](C)O)[C@@H](C)C1 [Compound 237] ; IC50 observed: 100 to 500 nM
